RORc (Homo sapiens, UniProt P51449) IC50, compiled from various sources.
Lab note: write values as number then unit, every time.

Query: State, in one line, measured IC50 of C[C@H]1CCC(c2ccccc2)S(=O)(=O)N1Cc1ccc(C(=O)NCc2ccnn2C)cc1 (stereo partly shown)
Result: 1980 nM

Query: State, in one line, measured IC50 of `C[C@@H](O)CNC(=O)C1(c2ccc(CN3[C@@H](C)CC[C@H](c4ccccc4)S3(=O)=O)c(F)c2)CCOCC1`
Result: 47.4 nM

Query: State, in one line, measured IC50 of `CC[C@@H](O[C@@]12CC[C@@H](c3cc(-c4c(F)cccc4F)nnc31)C2(C)C)C(=O)N(C)C`
Result: 54.3 nM

Query: State, in one line, measured IC50 of `CC1(C)[C@H]2CC[C@]1(c1cccc(-c3cnc(CO)o3)n1)c1nnc(-c3c(F)cccc3F)cc12`
Result: 3.8 nM

---

UniProt P51449 pIC50, compiled from various sources.
Expect pIC50 as a plain number equal to -log10 of the molar concentration.

Query: State, in one line, measured pIC50 of `CC(C)CN(Cc1ccc(-c2ccncc2)s1)S(=O)(=O)Cc1ccccc1`
Result: 6.21

Query: State, in one line, measured pIC50 of `CC1(C)[C@@H]2CC[C@@]1(COCc1ccccc1)c1nnc(-c3c(F)cccc3Cl)cc12`
Result: 7.66

Query: State, in one line, measured pIC50 of `C[C@H]1CC[C@H](c2ccccc2)S(=O)(=O)N1Cc1ccc(C2(C(N)=O)CC2)cc1F`
Result: 5.97

Query: State, in one line, measured pIC50 of `CC(C)S(=O)(=O)Nc1cccc([C@@]23CC[C@@H](c4cc(-c5c(F)cccc5F)nnc42)C3(C)C)n1`
Result: 7.51

Query: State, in one line, measured pIC50 of `CC1(C)[C@H]2CC[C@]1(c1cncc(-c3nc(C[C@H](O)CO)n[nH]3)n1)c1nnc(-c3c(F)cccc3F)cc12`
Result: 7.55

Query: State, in one line, measured pIC50 of `CS(=O)(=O)N1CCC(Oc2ccc(S(=O)(=O)N(Cc3ccccc3C(F)(F)F)C3CCC3)cc2)CC1`
Result: 8.05

---

RORc (Homo sapiens, UniProt P51449) IC50, compiled from various sources.
IC50 under 300 nM gets TRUE, anything at or over 300 nM gets FALSE.

Query: Identify whether the compound `CC1(C)[C@@H]2CC[C@@]1(CC#N)c1nnc(-c3ccccc3F)cc12` records IC50 below 300 nM.
Result: FALSE

Query: Identify whether the compound `C[C@H]1CC[C@H](c2ccccc2)S(=O)(=O)N1Cc1ccc(C2(C(=O)NCC#N)CCOCC2)cc1F` records IC50 below 300 nM.
Result: TRUE

Query: Identify whether the compound `CC1(C)[C@H]2CC[C@]1(c1cccc(C#N)n1)c1nnc(-c3c(F)cccc3Cl)cc12` records IC50 below 300 nM.
Result: TRUE

Query: Identify whether the compound `COc1ccc(CN(CC(C)C)S(=O)(=O)c2ccc(N3CCN(S(C)(=O)=O)CC3)cc2)cc1` records IC50 below 300 nM.
Result: TRUE

Query: Identify whether the compound `CC1(C)[C@@H]2CC[C@@]1(Cc1noc(CO)n1)c1nnc(-c3ccccc3F)cc12` records IC50 below 300 nM.
Result: FALSE

Query: Identify whether the compound `CC1(C)[C@@H]2CC[C@@]1(C(=O)N1CC(C#N)C1)c1nnc(-c3c(F)cccc3F)cc12` records IC50 below 300 nM.
Result: FALSE

Query: Identify whether the compound `CC1(C)[C@H]2CC[C@]1(CN(CCO)C(N)=O)c1nnc(-c3c(F)cccc3F)cc12` records IC50 below 300 nM.
Result: TRUE

Query: Identify whether the compound `CN(CC(N)=O)[C@@]12CC[C@@H](c3cc(-c4c(F)cccc4F)nnc31)C2(C)C` records IC50 below 300 nM.
Result: FALSE

Query: Identify whether the compound `CC1(C)[C@H]2CC[C@]1(C#N)c1nnc(-c3c(F)cccc3F)cc12` records IC50 below 300 nM.
Result: FALSE

Query: Identify whether the compound `C[C@H]1CC[C@H](c2ccccc2)S(=O)(=O)N1Cc1ccc(C2(OCC(N)=O)CCOCC2)cc1F` records IC50 below 300 nM.
Result: TRUE

Query: Identify whether the compound `CC(C)CN(c1cccc(Cl)c1)S(=O)(=O)c1ccc(N2CCN(S(C)(=O)=O)CC2)cc1F` records IC50 below 300 nM.
Result: TRUE

Query: Identify whether the compound `CC1(C)[C@H]2CC[C@]1(c1ccnc(=O)[nH]1)c1nnc(-c3c(F)cccc3F)cc12` records IC50 below 300 nM.
Result: TRUE

---

RORc (Homo sapiens, UniProt P51449) pIC50, compiled from various sources.
Expect pIC50 as a plain number equal to -log10 of the molar concentration.

Query: Answer briefly: pIC50 recorded on RORc (Homo sapiens, UniProt P51449) for `CC1(C)[C@H]2CC[C@]1(c1cncc(-c3nc(CS(=O)(=O)C4CC4)co3)n1)c1nnc(-c3c(F)cccc3F)cc12`
Result: 7.93

Query: Answer briefly: pIC50 recorded on RORc (Homo sapiens, UniProt P51449) for `CCC(O)(CC)c1coc(-c2cncc([C@@]34CC[C@@H](c5cc(-c6c(F)cccc6F)nnc53)C4(C)C)n2)n1`
Result: 8.28

Query: Answer briefly: pIC50 recorded on RORc (Homo sapiens, UniProt P51449) for `C[C@H]1CC[C@H](c2ccccc2)S(=O)(=O)N1Cc1ccc(C2(C(=O)NCC(=O)O)CCOCC2)cc1F`
Result: 6.64

Query: Answer briefly: pIC50 recorded on RORc (Homo sapiens, UniProt P51449) for `COC[C@]12CC[C@H](c3cc(-c4c(F)cccc4Cl)nnc31)C2(C)C`
Result: 7.35

Query: Answer briefly: pIC50 recorded on RORc (Homo sapiens, UniProt P51449) for `CC1(C)[C@H]2CC[C@]1(c1cc(O)cc(=O)o1)c1nnc(-c3c(F)cccc3F)cc12`
Result: 5.60

Query: Answer briefly: pIC50 recorded on RORc (Homo sapiens, UniProt P51449) for Cc1cc(NC(=O)c2ccc(CN3[C@@H](C)CCC(c4ccccc4)S3(=O)=O)cc2)n(C)n1 (single isomer, unassigned)
Result: 6.01

Query: Answer briefly: pIC50 recorded on RORc (Homo sapiens, UniProt P51449) for `CC(C)(O)c1coc(-c2cncc([C@@]34CC[C@@H](c5cc(-c6c(F)cccc6Cl)nnc53)C4(C)C)n2)n1`
Result: 8.48

Query: Answer briefly: pIC50 recorded on RORc (Homo sapiens, UniProt P51449) for `CC(C)CN(Cc1ccc(OC(F)F)cc1)S(=O)(=O)c1ccc(N2CCN(S(C)(=O)=O)CC2)cc1`
Result: 7.08

Query: Answer briefly: pIC50 recorded on RORc (Homo sapiens, UniProt P51449) for `CCN(C[C@]12CC[C@H](c3cc(-c4c(F)cccc4F)nnc31)C2(C)C)C(=O)CCC(=O)N(C)C`
Result: 7.51

Query: Answer briefly: pIC50 recorded on RORc (Homo sapiens, UniProt P51449) for `CC1(C)[C@H]2CC[C@]1(c1cccc(-c3nc(C4(O)COC4)n[nH]3)n1)c1nnc(-c3c(F)cccc3F)cc12`
Result: 8.05

Query: Answer briefly: pIC50 recorded on RORc (Homo sapiens, UniProt P51449) for `CC1(C)[C@H]2CC[C@]1(c1cncc(C(=O)NCC3(O)CC3)n1)c1nnc(-c3c(F)cccc3F)cc12`
Result: 7.29

Query: Answer briefly: pIC50 recorded on RORc (Homo sapiens, UniProt P51449) for `Cn1nc([C@@]23CC[C@@H](c4cc(-c5c(F)cccc5F)nnc42)C3(C)C)oc1=O`
Result: 6.91

Query: Answer briefly: pIC50 recorded on RORc (Homo sapiens, UniProt P51449) for `CC1(C)[C@H]2CC[C@]1(CNCC(F)F)c1nnc(-c3c(F)cccc3F)cc12`
Result: 6.83

Query: Answer briefly: pIC50 recorded on RORc (Homo sapiens, UniProt P51449) for C[C@H]1CC[C@H](c2ccccc2)S(=O)(=O)N1Cc1cc(F)c(C2(CO)CCC(O)CC2)cc1F (some centres unmarked)
Result: 8.09

Query: Answer briefly: pIC50 recorded on RORc (Homo sapiens, UniProt P51449) for C[C@H]1CCC(c2ccccc2)S(=O)(=O)N1Cc1ccc(-c2ccc(S(C)(=O)=O)cn2)cc1F (some centres unmarked)
Result: 7.06

Query: Answer briefly: pIC50 recorded on RORc (Homo sapiens, UniProt P51449) for C[C@H]1CCC(c2ccccc2)S(=O)(=O)N1Cc1ccc(-c2cnc(S(C)(=O)=O)nc2)cc1F (some centres unmarked)
Result: 6.00

Query: Answer briefly: pIC50 recorded on RORc (Homo sapiens, UniProt P51449) for `CC(=O)N1CCN(c2ccc(S(=O)(=O)N(c3cccc(Cl)c3)C3CCC3)cc2)CC1`
Result: 6.83

Query: Answer briefly: pIC50 recorded on RORc (Homo sapiens, UniProt P51449) for `CNC(=O)[C@@H]1[C@@H]2CN(C(=O)[C@]34CC[C@H](c5cc(-c6c(F)cccc6F)nnc53)C4(C)C)C[C@@H]21`
Result: 5.67

Query: Answer briefly: pIC50 recorded on RORc (Homo sapiens, UniProt P51449) for `Cc1nc(C[C@@]23CC[C@@H](c4cc(-c5c(F)cccc5F)nnc42)C3(C)C)no1`
Result: 6.97

Query: Answer briefly: pIC50 recorded on RORc (Homo sapiens, UniProt P51449) for `CC1(C)[C@@H]2CC[C@@]1(c1nnco1)c1nnc(-c3c(F)cccc3F)cc12`
Result: 6.73

Query: Answer briefly: pIC50 recorded on RORc (Homo sapiens, UniProt P51449) for `CC1(C)[C@H]2CC[C@]1(c1cncc(-c3ncnn3CCO)n1)c1nnc(-c3c(F)cccc3F)cc12`
Result: 7.36

Query: Answer briefly: pIC50 recorded on RORc (Homo sapiens, UniProt P51449) for `CC(=O)N1CCN(c2ccc(S(=O)(=O)N(Cc3ccccc3C(F)(F)F)CC(C)(C)C)cc2)CC1`
Result: 7.41

Query: Answer briefly: pIC50 recorded on RORc (Homo sapiens, UniProt P51449) for `CC(C)(O)c1noc(-c2cccc([C@@]34CC[C@@H](c5cc(-c6c(F)cccc6F)nnc53)C4(C)C)n2)n1`
Result: 8.82

Query: Answer briefly: pIC50 recorded on RORc (Homo sapiens, UniProt P51449) for `CC1CN(C(=O)[C@]23CC[C@H](c4cc(-c5c(F)cccc5F)nnc42)C3(C)C)C1`
Result: 7.15

Query: Answer briefly: pIC50 recorded on RORc (Homo sapiens, UniProt P51449) for `Cc1nnc(N(C)[C@@]23CC[C@@H](c4cc(-c5ccccc5F)nnc42)C3(C)C)o1`
Result: 5.74
